# System: Triticum aestivum (TRZAS)
# PROTOCOL DESCRIPTION: F. Post-emergence effect on useful plants, TRZAS
# Type: in vivo
# EXPERIMENTAL CONTEXT: useful plant, application rate 80 g/ha
RECORDED ENDPOINT: Post-emergence efficacy against TRZAS in % (%)
Quick note: give the figure in %, leave out the unit.

>>> df
                                   compound  reported
0  Cc1cccc(Oc2ncc(Cl)cn2)c1OS(=O)(=O)CCC(F)=C(F)F [Example I-71]         0
1  Cc1cccc(Oc2ncc(Cl)cn2)c1OS(=O)(=O)CC=C(Cl)Cl [Example I-83]         0
2  O=S(=O)(CCCCl)Oc1cccc(F)c1Oc1ncc(Cl)cn1 [Example I-13]        10
3  Cc1cccc(Oc2ncc(F)cn2)c1OS(=O)(=O)CCC(F)(F)F [Example I-45]         0
4  O=S(=O)(CC=C(Cl)Cl)Oc1c(F)cccc1Oc1ncc(Cl)cn1 [Example I-85]         0

Q: Entry under review: CCCS(=O)(=O)Oc1ccccc1Oc1ncc(Cl)cn1 [Example I-3] . Reported Post-emergence efficacy against TRZAS in %?
Result: 0
